- subject-of-test: T1, rat IL-17A (rat, UniProt Q61453 18-150, limits assumed)
- T1 construct: Purified recombinant protein in SPR
- T1 sequence (looked up): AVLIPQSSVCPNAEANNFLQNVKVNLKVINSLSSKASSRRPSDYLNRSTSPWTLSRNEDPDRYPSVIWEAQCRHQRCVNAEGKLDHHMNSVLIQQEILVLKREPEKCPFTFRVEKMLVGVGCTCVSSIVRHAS
- assay-notes: SPR (Biacore 3000), antibody captured by anti-Fc, antigen in solution;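 further: purified recombinant IL-17 antigens flowed over captured antibodies in HBS-EP buffer, global Langmuir one-to-one fit of association and dissociation phases, KD derived from koff over kon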
koff listing for selected binders.
Give the value, in units of s⁻¹, as a plain number.

In the examples that follow, each entry is paired with its recorded koff.
binder	result-unit	koff
IL17-h5C5.21 (antibody, V domains shown, IgG; constant regions not specified; also called h5C5.21 (VH.1b-Vk.3c)) VH: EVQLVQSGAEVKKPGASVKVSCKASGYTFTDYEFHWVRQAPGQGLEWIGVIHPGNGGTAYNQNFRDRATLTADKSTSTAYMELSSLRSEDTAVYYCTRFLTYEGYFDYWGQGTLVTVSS VL: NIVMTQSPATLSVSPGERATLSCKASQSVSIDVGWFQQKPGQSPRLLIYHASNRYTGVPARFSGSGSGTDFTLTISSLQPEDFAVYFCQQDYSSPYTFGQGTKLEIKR	s⁻¹	0.0024
IL17-h10F7.6 (antibody, V domains shown, IgG; constant regions not specified; also called h10F7.6 (VH.1a-Vk.1a)) VH: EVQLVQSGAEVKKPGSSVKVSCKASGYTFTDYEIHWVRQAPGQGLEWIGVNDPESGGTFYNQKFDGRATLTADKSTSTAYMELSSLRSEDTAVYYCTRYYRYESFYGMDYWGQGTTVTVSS VL: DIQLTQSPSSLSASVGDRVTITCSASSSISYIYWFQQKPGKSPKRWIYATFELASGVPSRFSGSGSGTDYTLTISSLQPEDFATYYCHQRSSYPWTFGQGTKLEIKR	s⁻¹	0.000454
IL17-h5C5.14 (antibody, V domains shown, IgG; constant regions not specified; also called h5C5.14 (VH.1-Vk.3a)) VH: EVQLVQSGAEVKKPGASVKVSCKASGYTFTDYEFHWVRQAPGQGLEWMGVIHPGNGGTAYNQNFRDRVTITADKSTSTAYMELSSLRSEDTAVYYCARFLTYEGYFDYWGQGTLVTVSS VL: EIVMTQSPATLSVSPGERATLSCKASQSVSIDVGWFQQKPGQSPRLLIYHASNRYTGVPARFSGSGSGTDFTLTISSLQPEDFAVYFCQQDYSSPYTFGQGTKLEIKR	s⁻¹	0.00398

Next binder, koff to be filled in.
# lookup: koff of IL17-h10F7.11 (antibody, V domains shown, IgG; constant regions not specified; also called h10F7.11 (VH.1a-Vk.2a)) VH: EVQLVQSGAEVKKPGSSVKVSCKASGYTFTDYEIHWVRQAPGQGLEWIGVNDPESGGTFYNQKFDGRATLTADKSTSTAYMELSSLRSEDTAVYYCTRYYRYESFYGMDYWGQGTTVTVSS VL: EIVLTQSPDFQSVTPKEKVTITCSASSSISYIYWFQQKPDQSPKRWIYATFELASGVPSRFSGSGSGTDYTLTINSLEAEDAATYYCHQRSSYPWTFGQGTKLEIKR 0.000667
